// values below are reported pIC50
System: 616215-338-R-J1-PDC complex spheroid viability;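 note: spheroids exposed to compounds for one week before readout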
ASSAY NAME: Anticancer human tumor 616215-338-R-J1-PDC patient-derived colon adenocarcinoma cell line growth inhibition [POLQ]
SETUP CONDITIONS: curve of first compound; second compound 0.316 µM
Reminder that pIC50 means the negative base-10 logarithm of the concentration expressed in mol/L.

Documented pIC50 of CCCS(=O)(=O)Nc1ccc(F)c(C(=O)c2c[nH]c3ncc(-c4ccc(Cl)cc4)cc23)c1F + COC1C(OC(N)=O)C(O)C(Oc2ccc3c(O)c(NC(=O)c4ccc(O)c(CC=C(C)C)c4)c(=O)oc3c2C)OC1(C)C : 5.24

Documented pIC50 of CCCS(=O)(=O)Nc1ccc(F)c(C(=O)c2c[nH]c3ncc(-c4ccc(Cl)cc4)cc23)c1F + Cc1cccc(N(C)C(=O)C2C(O)CCN2c2nc(C)cc(C(F)(F)F)c2C#N)c1 : 5.28
